- measured.on: SMYD2 (Homo sapiens)
- Construct: Full length SMYD2 (NP 064582.2) was cloned; His6 (N, cleaved yes); FLAG (N); made in house; host or cells: Sf9 insect cells
- method.description: SMYD2 Biochemical Assay (3H-SAM, biotinylated peptide substrate, Flashplate)
- conditions: IC50 values are an average of n = 1 to n = 50; read-out: SMYD2 Biochem IC50 (μM)*
reported.endpoint: IC50 (µM)

A. C[C@H]1CN(Cc2cccc3cccnc23)C[C@H]1NC(=O)c1cc(C2CC2)on1 (racemic)
B. CC[C@H]1CN(C)C[C@@H]1NC(=O)c1cc(C2CC2)on1 (racemic)
C. C[C@H]1CN(CCc2ccccc2)C[C@H]1NC(=O)c1cc(C2CC2)on1 (racemic)
Using the recorded IC50, list the entries above from smallest to largest. Returns: the labels arranged in the requested order. C, A, B
(C: 2.46 µM, A: 12.3 µM, B: 45.3 µM)

---

Each entry below carries its reported pIC50.
- measured.on: SMYD2 (Homo sapiens, UniProt Q9NRG4)
- Construct: Full length SMYD2 (NP 064582.2) was cloned; His6 (N, cleaved yes); FLAG (N); made in house; host or cells: Sf9 insect cells
- Sequence (Q9NRG4 whole entry): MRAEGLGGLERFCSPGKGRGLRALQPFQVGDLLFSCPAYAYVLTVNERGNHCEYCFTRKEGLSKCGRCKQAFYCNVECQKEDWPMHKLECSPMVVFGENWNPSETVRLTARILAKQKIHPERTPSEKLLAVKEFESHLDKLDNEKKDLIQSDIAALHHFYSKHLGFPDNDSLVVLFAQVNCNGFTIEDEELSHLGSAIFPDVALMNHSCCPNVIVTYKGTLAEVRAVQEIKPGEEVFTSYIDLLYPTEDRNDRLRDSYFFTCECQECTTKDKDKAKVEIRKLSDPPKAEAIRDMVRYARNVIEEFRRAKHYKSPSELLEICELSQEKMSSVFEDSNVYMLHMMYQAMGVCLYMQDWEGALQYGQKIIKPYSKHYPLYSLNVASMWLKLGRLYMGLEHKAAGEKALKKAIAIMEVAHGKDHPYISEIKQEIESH
- method.description: SMYD2 Biochemical Assay (3H-SAM, biotinylated peptide substrate, Flashplate)
- conditions: Table 1; average of n = 1 to n = 50; read-out: SMYD2 Biochem IC50
pIC50: −log10 of the molar value.

- CC1CC(NC(=O)c2cc(C3CC3)on2)CN1Cc1ccccc1 (stereo not drawn) [compound 21]: 4.35
- CC(=O)Nc1ccc(S(=O)(=O)N2CC[C@@H](NC(=O)c3cc(C4CC4)on3)C2)cc1 [compound 2]: < 4.30
- Cc1cc(N2CCC(NC(=O)c3cc(C4CC4)on3)C2=O)n(C)n1 (stereo not drawn) [compound 6]: < 4.30
- O=C(NC1CC(=O)N(c2ccccc2)C1)c1cc(C2CC2)on1 (stereo not drawn) [compound 25]: < 4.30
- CN1C[C@@H](O)[C@H](NC(=O)c2cc(C3CC3)on2)C1 (racemic) [compound 40]: < 4.30
- C[C@H]1CNC[C@H]1NC(=O)c1cc(C2CC2)on1 (racemic) [compound 38]: 4.81
- CC1CC(NC(=O)c2cc(C3CC3)on2)C(=O)N1c1ccccc1 (stereo not drawn) [compound 11]: < 4.30
- CC(=O)Nc1ccc(S(=O)(=O)N2CC[C@H](NC(=O)c3cc(C4CC4)on3)C2)cc1 [compound 1]: < 4.30

Report the value of pIC50 obtained on SMYD2 (Homo sapiens, UniProt Q9NRG4) for CC(C)N1C[C@H](NC(=O)c2cc(C3CC3)on2)[C@@H](C)C1 [compound 42] . 5.72

Report the value of pIC50 obtained on SMYD2 (Homo sapiens, UniProt Q9NRG4) for C[C@H]1CN(C2CC2)C[C@H]1NC(=O)c1cc(C2CC2)no1 (racemic) [compound 51] . 5.10

Report the value of pIC50 obtained on SMYD2 (Homo sapiens, UniProt Q9NRG4) for CC(C)N1CCC(NC(=O)c2cc(C3CC3)on2)C1c1ccc(F)c(F)c1 (stereo not drawn) [compound 12] . < 4.30

Report the value of pIC50 obtained on SMYD2 (Homo sapiens, UniProt Q9NRG4) for O=C(NC1CC(=O)N(Cc2ccccc2)C1)c1cc(C2CC2)on1 (stereo not drawn) [compound 26] . < 4.30

Report the value of pIC50 obtained on SMYD2 (Homo sapiens, UniProt Q9NRG4) for O=C(N[C@@H]1CCNC1)c1cc(C2CC2)on1 [compound 4] . < 4.30

Report the value of pIC50 obtained on SMYD2 (Homo sapiens, UniProt Q9NRG4) for CC(c1ccccc1)N1CCC(NC(=O)c2cc(C3CC3)on2)C1 (stereo not drawn) [compound 24] . < 4.30

Report the value of pIC50 obtained on SMYD2 (Homo sapiens, UniProt Q9NRG4) for CN1C[C@H](NC(=O)c2cc(C3CC3)on2)[C@H](c2ccccc2)C1 (racemic) [compound 17] . < 4.30

Report the value of pIC50 obtained on SMYD2 (Homo sapiens, UniProt Q9NRG4) for N[C@H]1CC[C@H](C(=O)N2CC[C@H](NC(=O)c3cc(C4CC4)on3)C2)CC1 [compound 33] . < 4.30

Report the value of pIC50 obtained on SMYD2 (Homo sapiens, UniProt Q9NRG4) for CN1CCC(NC(=O)c2cc(C3CC3)on2)C1c1ccc(Cl)c(F)c1 (stereo not drawn) [compound 7] . < 4.30

Report the value of pIC50 obtained on SMYD2 (Homo sapiens, UniProt Q9NRG4) for C[C@@H]1CNC[C@H]1NC(=O)c1cc(C2CC2)on1 (racemic) [compound 43] . < 4.30
